Molecular target: T1, HLA-DRB1*0101 (human)
T1 construct: human MHC class II allotype
Experiment: competitive MHC class II binding assay; competitor: control peptide Influenza haemagglutinin 307-319;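 further: each peptide was tested for its capacity to displace a known reference binder from human MHC class II allotypes, and its IC50 is expressed relative to that of the reference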
measured-quantity: ratio of IC50 to that of the control peptide (ratio)
Numbers only here, please. The scale is ratio.

Param item = KPFQLEAVFEANQNT [HDM21] ; retrieve measured ratio of IC50 to that of the control peptide.
92

KPFQLEAVFEANQNTK [HDM21A] , same question.
200

Can you handle RGKPFQLEAVFEANQNT [HDM21B] next?
13.5

Okay, and DGVLACAIATHAKIR [HDM26A] ?
42.3

Data provenance: patent US20100260805A1
